# collision cross section (N2) per record follows
conditions: [M+Na]+; instrument: DT; stepped-field
Supply the numeric figure in Å², leaving out any unit text.

Below are worked cases with known answers.
| molecule | measureUnit | collision cross section (N2) |
| --- | --- | --- |
| CCCCC/C=C\C/C=C\C/C=C\C/C=C\CCCC(=O)O[C@H](COC(=O)CCCCCCCCC/C=C\CCCCCCCC)COP(=O)(O)OC[C@H](N)C(=O)O | Å² | 293.82 |
| CCCCCCCC/C=C\CCCCCCCC(=O)OC[C@H](COP(=O)(O)OCCN)OC(=O)CCCCCCC/C=C\CCCCCCCCC | Å² | 282.21 |
| CCCCCCCC/C=C\CCCCCCCCCC(=O)O[C@H](COCCCCCCCCCCCCCCCC)COP(=O)(O)OCCN | Å² | 281.66 |
| CCCCC/C=C\C/C=C\C/C=C\CCCCC(=O)OC[C@H](COP(=O)(O)OCCN)OC(=O)CCCCCCCCCCC/C=C\C/C=C\CCCCC | Å² | 289.38 |

Any idea what its collision cross section (N2) is? The molecule is CCCCCCCCCCCCC=CC[C@@H](O)[C@H](COP(=O)([O-])OCC[N+](C)(C)C)NC(=O)CC=CCC=CCCCCCCCCCCCCCCCCC
297.59

Any idea what its collision cross section (N2) is? The molecule is CCCCC/C=C\C/C=C\C/C=C\CCCCCCC(=O)OC[C@H](COP(=O)(O)OC[C@H](N)C(=O)O)OC(=O)CCCCCCCCCCC/C=C\C/C=C\CCCCC
297.67

Any idea what its collision cross section (N2) is? The molecule is CCCCCCCCCCCCC=CC[C@@H](O)[C@H](CO[C@@H]1O[C@H](CO)[C@@H](O)C(O)C1O)NC(=O)CCCCCCCCCCCCCCC (stereo partly drawn)
278.95

Any idea what its collision cross section (N2) is? The molecule is CCCCC/C=C\C/C=C\C/C=C\CCCCCCC(=O)OC[C@H](COP(=O)(O)OC[C@H](N)C(=O)O)OC(=O)CCCCCCCCC/C=C\CCCCCCCCCC
298.86

---

# collision cross section (N2) per record follows
conditions: [M+H-H2O]+; instrument: TW; calibrated with polyalanine and drug standards
Supply the numeric figure in Å², leaving out any unit text.

Below are worked cases with known answers.
| molecule | measureUnit | collision cross section (N2) |
| --- | --- | --- |
| NC[C@H](O)c1ccc(O)c(O)c1 [NOREPINEPHRINE] | Å² | 132.6 |
| O=C(N[C@H](CO)[C@H](O)c1ccc([N+](=O)[O-])cc1)C(Cl)Cl | Å² | 163.9 |
| COc1ccc2c(c1)OC1(O)COc3cc(OC)c(OC)cc3C1=C2 (stereo unspecified) [12a-HYDROXY-5-DEOXYDEHYDROMUNDUSERONE] | Å² | 173 |
| COc1ccc2c(c1)OC[C@@H](Cc1ccc(OC)c(OC)c1)[C@H]2O [TETRAHYDROSAPPANONE A TRIMETHYL ETHER] | Å² | 172 |
| NS(=O)(=O)c1cc(C2(O)NC(=O)c3ccccc32)ccc1Cl (stereo unspecified) | Å² | 166.7 |

For the next question, use this molecule.
Any idea what its collision cross section (N2) is? The molecule is COc1cc([C@@H]2c3cc4c(c(O)c3C[C@H]3COC(=O)[C@@H]32)OCO4)cc(OC)c1OC
189

---

# collision cross section (N2) per record follows
settings: [M+HCOO]-; instrument: DT; single field, calibrated with Agilent tune mix (Agilent)
Supply the numeric figure in Å², leaving out any unit text.

| molecularString | collision cross section (N2) [Å²] |
| --- | --- |
| CCCCCCCCCCCCC=CC[C@@H](O)[C@H](COP(=O)([O-])OCC[N+](C)(C)C)NC(=O)CCCCCCCCCCCCCCCCCCCCC | 297.5 |
| CCCCCCCCCCCCCCCCCCCCCC(=O)N[C@@H](CO)[C@H](O)CCCCCCCCCCCCCCC | 272 |

For the next question, use this compound.
Any idea what its collision cross section (N2) is? The compound is CCCCCCCCCCCCCCCCCC(=O)O[C@H](CO)COP(=O)([O-])OCC[N+](C)(C)C
241.4

---

conditions: [M+H]+; instrument: TW; calibrated with polyalanine and drug standards
attributeMeasured: collision cross section (N2) (Å²)
Supply the numeric figure in Å², leaving out any unit text.

| compound | collision cross section (N2) [Å²] |
| --- | --- |
| CCC1(c2ccccc2)C(=O)NCNC1=O [PRIMIDONE] | 146.9 |
| CC[C@@]1(O)C(=O)OCc2c1cc1n(c2=O)Cc2cc3cc(O)ccc3nc2-1 [10-HYDROXYCAMPTOTHECIN] | 187 |
| CC(C)=CC1C(C(=O)OCc2cccc(Oc3ccccc3)c2)C1(C)C (configuration not stated) [PHENOTHRIN] | 187.5 |
| CCN(CC)C(=S)SSC(=S)N(CC)CC [DISULFIRAM] | 165.5 |
| COc1cc(OC)c2ccc(=O)oc2c1 [CITROPTEN] | 138.3 |

Any idea what its collision cross section (N2) is? The compound is CC1CC2C3CCC4=CC(=O)C=CC4(C)C3(F)C(O)CC2(C)C1C(=O)CO (configuration not stated) [DESOXYMETASONE]
186.4

Any idea what its collision cross section (N2) is? The compound is O=c1c(O)c(-c2ccc(O)c(O)c2)oc2cc(O)cc(O)c12 [QUERCETIN]
163.4

Any idea what its collision cross section (N2) is? The compound is O=C(O)/C=C/C=C/c1ccc2c(c1)OCO2 [PIPERIC ACID]
138.6

Any idea what its collision cross section (N2) is? The compound is O=C(/C=C/c1ccccc1)c1ccc(O[C@@H]2O[C@H](CO)[C@@H](O)[C@H](O)[C@H]2O)cc1O [2',4'-DIHYDROXYCHALCONE 4'-GLUCOSIDE]
200.6

Any idea what its collision cross section (N2) is? The compound is CC(C)NCC(O)c1ccc(O)c(O)c1 (configuration not stated) [ISOPROTERENOL]
149.4

Any idea what its collision cross section (N2) is? The compound is COC(=O)Nc1nc2ccc(Sc3ccccc3)cc2[nH]1 [FENBENDAZOLE]
170.8

Any idea what its collision cross section (N2) is? The compound is CO[C@@H]1[C@@H](OC2OC(C)C(OC3CC(C)(O)C(O)C(C)O3)C(N(C)C)C2O)[C@@H](CC=O)C[C@@H](C)[C@@H](OC2CCC(N(C)C)C(C)O2)/C=C/C=C/C[C@@H](C)OC(=O)C[C@H]1O (some centres not stated) [SPIRAMYCIN]
317

Any idea what its collision cross section (N2) is? The compound is CC(C)c1c(O)c(-c2cc3c(c(C(C)C)c2O)CCC2C(C)(C)CCC[C@]32C)cc2c1CCC1C(C)(C)CCC[C@]21C (some centres not stated) [PODOTOTARIN]
255.6

Any idea what its collision cross section (N2) is? The compound is C=C1[C@H]2CC[C@@]3(C)[C@H](c4ccoc4)OC(=O)C[C@]13O[C@H]1C[C@H](O)C(C)(C)[C@H](CC(=O)OC)[C@]12C [3-DEOXY-3beta-HYDROXYANGOLENSIC ACID METHYL ESTER]
204.1

Any idea what its collision cross section (N2) is? The compound is CNCCC=C1c2ccccc2CCc2ccccc21 [NORTRIPTYLINE]
163.1

Any idea what its collision cross section (N2) is? The compound is CCC(C)C(NC)C(=O)O (configuration not stated) [N-METHYLISOLEUCINE]
130.6

Any idea what its collision cross section (N2) is? The compound is CC(=O)Oc1ccc(/C=C/c2cc(OC(C)=O)cc(OC(C)=O)c2)cc1 [TRIACETYLRESVERATROL]
171.1

Any idea what its collision cross section (N2) is? The compound is CC[C@@H](C)C(=O)O[C@H]1[C@H](O)[C@H]2[C@@H](CN3C[C@@H](C)CC[C@H]3[C@@]2(C)O)[C@@H]2C[C@]34O[C@]5(O)[C@@H](OC(=O)[C@@](C)(O)CC)CC[C@@]3(C)[C@@H]5[C@@H](OC(C)=O)[C@@H](OC(C)=O)[C@H]4[C@@]21O [PROTOVERATRINE A]
285.2

Any idea what its collision cross section (N2) is? The compound is O=C1C=CC2=C3c4cc(O)c(O)cc4CC3(O)COC2=C1 (configuration not stated) [BRAZILEIN]
159.9

Any idea what its collision cross section (N2) is? The compound is O=c1cc(CO)occ1O [KOJIC ACID]
121.9

Any idea what its collision cross section (N2) is? The compound is Cc1ncc(CO)c(CO)c1O [PYRIDOXINE]
132.3

Any idea what its collision cross section (N2) is? The compound is COc1cc(OC)c2c(OC)c(-c3ccc4c(c3)OCO4)c(=O)oc2c1 [DERRUSNIN]
176.7

Any idea what its collision cross section (N2) is? The compound is C[C@](N)(Cc1ccc(O)c(O)c1)C(=O)O [METHYLDOPA]
147.6

Any idea what its collision cross section (N2) is? The compound is NC(N)=NOCC[C@H](N)C(=O)O [CANAVANINE]
133.3

Origin of measurements: the C3SDB collision cross section collection
